- Test system: E. coli TESEC Mtb DapB
- measurement_notes: growth (OD600 after 10 h); higher = more growth (less inhibition)
- condition_notes: arabinose induction (level): Low; compound 0.1 mM; raw OD600 reference: median of DMSO wells 0.227, cell-free background 0.041
Where a name gives a salt, the structure may show the parent alone.
observation_type: growth

• C1CCc2nnnn2CC1 [Pentylenetetrazole] = 0.274
• CC(C)CC(N(C)C)C1(c2ccc(Cl)cc2)CCC1 (configuration not stated) [Sibutramine HCl] = 0.185
• CN(C)[C@@H]1C(=O)C(C(N)=O)=C(O)[C@@]2(O)C(=O)C3=C(O)c4c(O)ccc(Cl)c4[C@@](C)(O)[C@H]3C[C@@H]12 [Chlortetracycline hydrochloride] = 0.0507
• CN1CCN(C(=O)OC2c3nccnc3C(=O)N2c2ccc(Cl)cn2)CC1 (configuration not stated) [Zopiclone] = 0.224
• C[N+]1(C)[C@@H]2CC[C@H]1C[C@@H](OC(=O)C(CO)c1ccccc1)C2 (some centres not stated) [Methylatropine nitrate] = 0.229
• CN[C@@H]1[C@@H](O)[C@@H](O[C@@H]2[C@@H](O)[C@H](O[C@H]3O[C@H](CN)CC[C@H]3N)[C@@H](N)C[C@H]2N)OC[C@]1(C)O.CN[C@@H]1[C@@H](O)[C@@H](O[C@@H]2[C@@H](O)[C@H](O[C@H]3O[C@H]([C@@H](C)N)CC[C@H]3N)[C@@H](N)C[C@H]2N)OC[C@]1(C)O.CN[C@@H]1[C@@H](O)[C@@H](O[C@@H]2[C@@H](O)[C@H](O[C@H]3O[C@H]([C@@H](C)NC)CC[C@H]3N)[C@@H](N)C[C@H]2N)OC[C@]1(C)O [Gentamicine sulfate] = 0.112
• CCC1(c2cccc(O)c2)CCCCN(C)C1 (configuration not stated) [Meptazinol hydrochloride] = 0.217
